Molecular target: human PPARα (Homo sapiens)
Sequence (Q07869 239-466 limits assumed): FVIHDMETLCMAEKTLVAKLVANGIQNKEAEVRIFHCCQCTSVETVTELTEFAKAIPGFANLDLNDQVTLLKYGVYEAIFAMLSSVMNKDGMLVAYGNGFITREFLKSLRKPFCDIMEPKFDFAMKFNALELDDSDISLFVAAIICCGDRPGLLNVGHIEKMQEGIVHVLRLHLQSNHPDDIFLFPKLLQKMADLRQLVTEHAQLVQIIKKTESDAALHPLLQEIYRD
Assay: Gal4-hybrid reporter gene assay, PPARα activation
Settings: hybrid reporter gene assay, HEK293T cells
READOUT_NAME: EC50 (µM)
Answers are plain numbers, in µM.

Consider the compound shown here: COc1ccc(Oc2ccc3c(c2)ncn3CCOc2ccc(CCC(=O)O)cc2)cc1 What is its recorded EC50? 3.4

---

For each record, write down the corresponding logD.
Assay: Lipophilicity (LogD pH 7.4)
Format: physicochemical
Give bare numbers.

>>> observed_value("CO[C@@H](Cc1ccc(OCCc2nc(-c3ccccc3)oc2C)c2ccsc12)C(=O)O")
1.4
>>> observed_value("Cc1nnc(-c2ccc(OCCCOc3ccc(CCC(=O)O)c(F)c3)c(F)c2)s1")
1.5

We now examine a further compound.
Consider the compound shown here: COc1ccc(Oc2ccc3ncn(CCOc4ccc(CCC(=O)O)cc4)c3c2)cc1 What is its recorded logD? 1.7

---

Molecular target: human PPARγ (Homo sapiens, UniProt P37231)
Construct: expressed in transfected cells; host or cells: HEK293T
Sequence (P37231 238-503 limits assumed): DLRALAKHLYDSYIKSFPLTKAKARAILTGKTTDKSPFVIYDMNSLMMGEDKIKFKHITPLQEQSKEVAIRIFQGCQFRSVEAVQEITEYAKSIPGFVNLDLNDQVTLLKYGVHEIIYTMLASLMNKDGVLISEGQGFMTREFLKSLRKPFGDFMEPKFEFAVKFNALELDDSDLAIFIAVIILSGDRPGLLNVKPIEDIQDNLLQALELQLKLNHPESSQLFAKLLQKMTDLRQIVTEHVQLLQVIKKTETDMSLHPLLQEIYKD
Assay: Gal4-hybrid reporter gene assay, PPARγ activation
Type: cell-based
Conditions: hybrid reporter gene assay, HEK293T cells; read-out: EC50(PPARγ)
READOUT_NAME: EC50 (nM)
Answers are plain numbers, in nM.

Consider the compound shown here: COc1ccc(Oc2ccc3c(c2)ncn3CCOc2ccc(CCC(=O)O)cc2)cc1 What is its recorded EC50? 1800

---

pIC50: −log10 of the molar value.
Assay read-out pIC50; system under study: CYP3A4 (Homo sapiens, UniProt P08684).
Sequence (P08684 whole entry): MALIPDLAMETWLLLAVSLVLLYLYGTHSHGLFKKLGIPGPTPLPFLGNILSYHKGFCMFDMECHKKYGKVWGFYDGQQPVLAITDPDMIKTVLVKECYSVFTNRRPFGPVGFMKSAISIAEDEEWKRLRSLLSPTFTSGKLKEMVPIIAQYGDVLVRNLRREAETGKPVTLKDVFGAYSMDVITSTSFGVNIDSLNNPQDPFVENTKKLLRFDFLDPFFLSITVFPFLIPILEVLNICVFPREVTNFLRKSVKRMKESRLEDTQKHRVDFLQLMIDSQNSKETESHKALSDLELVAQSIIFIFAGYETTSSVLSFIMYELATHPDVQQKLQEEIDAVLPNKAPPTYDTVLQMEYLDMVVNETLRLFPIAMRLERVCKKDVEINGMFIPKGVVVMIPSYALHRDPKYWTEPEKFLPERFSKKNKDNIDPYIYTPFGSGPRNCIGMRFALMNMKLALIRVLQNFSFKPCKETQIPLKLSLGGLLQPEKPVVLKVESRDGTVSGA

>>> observed_value("COc1ccc(Oc2ccc3ncn(CCOc4ccc(CCC(=O)O)cc4)c3c2)cc1 [Compound 2]")
"< 4.70"

We now examine a further compound.
Consider the compound shown here: Cc1nnc(-c2ccc(OCCCOc3ccc(CCC(=O)O)c(F)c3)c(F)c2)s1 [Compound 1] What is its recorded pIC50? < 4.70

---

Assay read-out pIC50; system under study: CYP2C19 (Homo sapiens, UniProt P33261).
Sequence (P33261 whole entry): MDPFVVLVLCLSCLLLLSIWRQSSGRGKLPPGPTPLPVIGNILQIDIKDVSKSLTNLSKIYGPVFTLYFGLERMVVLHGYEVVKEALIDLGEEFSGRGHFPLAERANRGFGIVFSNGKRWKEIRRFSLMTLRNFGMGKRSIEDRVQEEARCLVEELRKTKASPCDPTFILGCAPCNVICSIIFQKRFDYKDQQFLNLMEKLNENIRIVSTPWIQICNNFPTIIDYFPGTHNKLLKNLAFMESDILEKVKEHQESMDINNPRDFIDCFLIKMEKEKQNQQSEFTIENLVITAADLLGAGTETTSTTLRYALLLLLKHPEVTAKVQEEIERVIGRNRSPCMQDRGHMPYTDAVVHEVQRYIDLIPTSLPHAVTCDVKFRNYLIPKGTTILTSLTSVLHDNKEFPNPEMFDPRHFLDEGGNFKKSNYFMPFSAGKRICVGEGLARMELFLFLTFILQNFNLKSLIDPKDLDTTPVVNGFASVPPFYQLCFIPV
pIC50: −log10 of the molar value.

>>> observed_value("COc1ccc(Oc2ccc3ncn(CCOc4ccc(CCC(=O)O)cc4)c3c2)cc1")
"< 4.70"

We now examine a further compound.
Quick check: pIC50 on CYP2C19 (Homo sapiens, UniProt P33261), item Cc1nnc(-c2ccc(OCCCOc3ccc(CCC(=O)O)c(F)c3)c(F)c2)s1 ? < 4.70

---

Assay read-out IC50; system under study: CYP2B6 (Homo sapiens).
Sequence (P20813 whole entry): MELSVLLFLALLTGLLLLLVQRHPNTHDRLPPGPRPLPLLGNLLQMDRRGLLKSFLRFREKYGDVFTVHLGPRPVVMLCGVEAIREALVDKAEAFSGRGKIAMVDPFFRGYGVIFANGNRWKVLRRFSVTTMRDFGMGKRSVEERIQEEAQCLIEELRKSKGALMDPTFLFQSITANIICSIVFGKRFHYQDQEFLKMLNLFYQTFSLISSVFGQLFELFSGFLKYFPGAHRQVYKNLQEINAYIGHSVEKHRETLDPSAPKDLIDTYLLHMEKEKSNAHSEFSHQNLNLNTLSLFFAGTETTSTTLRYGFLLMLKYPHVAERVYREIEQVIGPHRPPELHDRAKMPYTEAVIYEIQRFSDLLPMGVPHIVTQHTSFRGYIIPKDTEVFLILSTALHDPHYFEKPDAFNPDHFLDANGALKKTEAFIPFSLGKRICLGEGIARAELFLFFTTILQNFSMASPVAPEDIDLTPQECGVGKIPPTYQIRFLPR

>>> observed_value("Cc1nnc(-c2ccc(OCCCOc3ccc(CCC(=O)O)c(F)c3)c(F)c2)s1 [Compound 1]")
"> 20 µM"

We now examine a further molecule.
Consider the molecule shown here: COc1ccc(Oc2ccc3ncn(CCOc4ccc(CCC(=O)O)cc4)c3c2)cc1 [Compound 2] What is its recorded IC50? > 20 µM

---

Target: human PPARδ (Homo sapiens)
Sequence (Q03181 211-439 limits assumed): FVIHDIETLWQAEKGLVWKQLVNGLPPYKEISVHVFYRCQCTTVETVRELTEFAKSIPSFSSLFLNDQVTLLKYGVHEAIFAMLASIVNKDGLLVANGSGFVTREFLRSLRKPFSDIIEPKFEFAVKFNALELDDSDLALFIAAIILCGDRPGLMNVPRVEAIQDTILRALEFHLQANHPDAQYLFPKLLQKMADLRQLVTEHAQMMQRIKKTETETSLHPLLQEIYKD
Test: Gal4-hybrid reporter gene assay, PPARδ activation
Settings: HEK293T cells
READOUT_NAME: pEC50
One number for each entry, as −log10 of the molar value.

Consider the compound shown here: Cc1nnc(-c2ccc(OCCCOc3ccc(CCC(=O)O)c(F)c3)c(F)c2)s1 What is its recorded pEC50? 6.62

meta.source: paper PMC11035696
